We begin with a simple list: items and their reported GI50.
- Tested on: MCF7 breast
- experiment-summary: NCI tumour cell line growth inhibition, 48 h

Some compounds with known GI50 results, for comparison:
COc1ccc2c(c1)/C(=C\c1c(Cl)n(C)c3ccccc13)C(=O)N2    0.682 µM
Cc1cc2cc3cc(C)c(N)cc3[n+](C)c2cc1N    0.476 µM
S=C(c1ccc2c(c1)OCO2)N1CCN(c2cccc(Cl)c2)CC1    0.471 µM
COc1cc(NC(=O)CSc2nc3ccccc3c(=O)n2CCc2ccccc2)cc(OC)c1OC    4.44 µM

Field: next compound
Give MCF7 breast GI50 for the following compound: CCCC1=C(C(=O)OCC)C(c2ccccc2OC)C(C#N)=C(N)O1 (stereo not given)
28.4 µM
